molecular target: Recombinant human PDE4B (Homo sapiens (Human)); experiment: Inhibitory activity against PDE 4B in vitro (fluorescence polarization, Transcreener AMP2/GMP2); conditions: 1 μM cAMP
Readout name: IC50 (nM)

Solved cases below.
| Compound | Tgt | IC50 (nM) |
| --- | --- | --- |
| CCOc1cc([C@@H](CS(C)(=O)=O)n2c(=O)n(C)c3cc(-c4ccccc4F)cnc32)ccc1OC | Recombinant human PDE4B (Homo sapiens (Human)) | 1.25 |
| CCOc1cc([C@@H](CS(C)(=O)=O)n2c(=O)[nH]c3cc(-c4ccccc4CC)cnc32)ccc1OC | Recombinant human PDE4B (Homo sapiens (Human)) | 0.515 |
| CCOc1cc([C@@H](CS(C)(=O)=O)n2c(=O)n(CC(F)F)c3cc(Cl)cnc32)ccc1OC | Recombinant human PDE4B (Homo sapiens (Human)) | 41.6 |

P: CCOc1cc([C@@H](CS(C)(=O)=O)n2c(=O)[nH]c3cc(-c4c(F)cccc4F)cnc32)ccc1OC
Q: CCOc1cc([C@@H](CS(C)(=O)=O)n2c(=O)[nH]c3cc(-c4nnccc4C)cnc32)ccc1OC
Consider entries P and Q . Which has the numerically lower IC50? Write down the label attached to your selection. P
(P: 0.671 nM, Q: 21.7 nM)

###

biological target: Recombinant human PDE4B (Homo sapiens (Human)); test: Inhibitory activity against PDE 4B in vitro (fluorescence polarization, Transcreener AMP2/GMP2); settings: 1 μM cAMP
Readout name: IC50 (nM)

Recorded results for 2 molecules are shown here.
| Molecule | IC50 (nM) |
| --- | --- |
| CCOc1cc([C@@H](CS(C)(=O)=O)n2c(=O)n(Cc3ccccc3F)c3cc(Cc4ccccc4F)cnc32)ccc1OC [WX024] | 2.7 |
| COc1ccc(C(CS(C)(=O)=O)n2c(=O)[nH]c3c(-c4ccccc4F)ccnc32)cc1OC (single isomer, unassigned) [WX072] | 24.6 |

a: CCOc1cc([C@@H](CS(C)(=O)=O)n2c(=O)[nH]c3cc(-c4ccccc4C#N)cnc32)ccc1OC [WX032]
b: CCOc1cc([C@@H](CS(C)(=O)=O)n2c(=O)n(-c3ccccc3)c3cc(Br)cnc32)ccc1OC [WX044]
c: CCOc1cc([C@@H](CS(C)(=O)=O)n2c(=O)n(Cc3cncc(C)n3)c3cc(Br)cnc32)ccc1OC [WX055]
Please rank these molecules by IC50 in descending order. Enter labels, ranked according to the request. b, c, a
(b: 26.6 nM, c: 6.99 nM, a: 0.234 nM)

###

biological target: Recombinant human PDE4B (Homo sapiens (Human)); assay: Inhibitory activity against PDE 4B in vitro (fluorescence polarization, Transcreener AMP2/GMP2); conditions: 1 μM cAMP
pIC50: −log10 of the molar value.
Readout name: pIC50

| Molecule | Recorded number |
| --- | --- |
| CCOc1cc([C@@H](CS(C)(=O)=O)n2c(=O)[nH]c3c(-c4ccccc4F)ccnc32)ccc1OC | 8.73 |

I: CCOc1cc([C@@H](CS(C)(=O)=O)n2c(=O)[nH]c3cc(-c4ccccc4OC)cnc32)ccc1OC
II: CCOc1cc([C@@H](CS(C)(=O)=O)n2c(=O)[nH]c3cc(C(F)(F)F)cnc32)ccc1OC
III: CCOc1cc([C@@H](CS(C)(=O)=O)n2c(=O)[nH]c3cc(-c4cccnc4)cnc32)ccc1OC
IV: CCOc1cc([C@@H](CS(C)(=O)=O)n2c(=O)[nH]c3c(-c4ccccc4)ccnc32)ccc1OC
V: CCOc1cc([C@@H](CS(C)(=O)=O)n2c(=O)n(CC(F)(F)F)c3cc(Cl)cnc32)ccc1OC
Ordering: ascending pIC50. The reply should contain the labels ordered as requested. V, III, II, IV, I

###

target: Recombinant human PDE4B (Homo sapiens (Human), UniProt Q07343); assay: Inhibitory activity against PDE 4B in vitro (fluorescence polarization, Transcreener AMP2/GMP2); format: biochemical; settings: 1 μM cAMP
Sequence (Q07343 305-736 limits assumed): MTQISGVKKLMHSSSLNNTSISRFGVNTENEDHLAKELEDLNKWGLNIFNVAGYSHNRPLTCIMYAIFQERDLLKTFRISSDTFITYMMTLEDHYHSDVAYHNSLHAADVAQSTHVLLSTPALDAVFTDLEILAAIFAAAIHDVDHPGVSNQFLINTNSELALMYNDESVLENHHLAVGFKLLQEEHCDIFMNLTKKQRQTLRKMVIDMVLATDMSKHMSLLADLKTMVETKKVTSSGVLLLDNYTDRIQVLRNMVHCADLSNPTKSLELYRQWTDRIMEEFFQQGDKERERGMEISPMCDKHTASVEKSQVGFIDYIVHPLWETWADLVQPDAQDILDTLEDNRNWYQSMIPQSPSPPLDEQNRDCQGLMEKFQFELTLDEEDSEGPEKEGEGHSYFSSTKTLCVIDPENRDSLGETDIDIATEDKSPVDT
Readout name: IC50 (nM)

| Compound | Readout name | Recorded number |
| --- | --- | --- |
| CCOc1cc([C@@H](CS(C)(=O)=O)n2c(=O)n(CC#N)c3cc(-c4ccccc4F)cnc32)ccc1OC | IC50 | 0.989 |

I: CCOc1cc(C(CS(C)(=O)=O)n2c(=O)oc3cc(Br)cnc32)ccc1OC (stereo not shown)
II: CCOc1cc([C@@H](CS(C)(=O)=O)n2c(=O)n(C)c3cc(Br)cnc32)ccc1OC
III: CCOc1cc([C@@H](CS(C)(=O)=O)n2c(=O)[nH]c3cc(C4CC4)cnc32)ccc1OC
Hey, quick one: sort these by IC50, largest value first please. # answer = labels listed in requested order I, II, III
(I: 73.8 nM, II: 11 nM, III: 5.03 nM)

###

target: Recombinant human PDE4B (Homo sapiens (Human), UniProt Q07343); assay: Inhibitory activity against PDE 4B in vitro (fluorescence polarization, Transcreener AMP2/GMP2); conditions: 1 μM cAMP
Readout name: IC50 (nM)

Solved cases below.
| Molecule | IC50, nM |
| --- | --- |
| CCOc1cc([C@@H](CS(C)(=O)=O)n2c(=O)[nH]c3cc(-c4ncccn4)cnc32)ccc1OC [WX026] | 4.51 |
| CCOc1cc([C@@H](CS(C)(=O)=O)n2c(=O)[nH]c3cc(-c4ccccc4OCC)cnc32)ccc1OC [WX031] | 0.861 |
| CCOc1cc([C@@H](CS(C)(=O)=O)n2c(=O)[nH]c3cc(-c4ccncc4)cnc32)ccc1OC [WX035] | 15.5 |
| CCOc1cc([C@@H](CS(C)(=O)=O)n2c(=O)[nH]c3cc(-c4ncccc4F)cnc32)ccc1OC [WX037] | 10.2 |
| CCOc1cc([C@@H](CS(C)(=O)=O)n2c(=O)[nH]c3cc(C=C(C)C)cnc32)ccc1OC [WX007] | 2.81 |
| CCOc1cc(C(CS(C)(=O)=O)N2C(=O)Cc3cc(Br)cnc32)ccc1OC (centres unmarked) [WX069] | 47.8 |
| CCOc1cc([C@@H](CS(C)(=O)=O)n2c(=O)[nH]c3cc(-c4c(C)ncnc4C)cnc32)ccc1OC [WX034] | 5.18 |
| CCOc1cc([C@@H](CS(C)(=O)=O)n2c(=O)n(C)c3cc(OC)cnc32)ccc1OC [WX041] | 16.4 |
| CCOc1cc([C@@H](CS(C)(=O)=O)n2c(=O)n(Cc3nccc(C)n3)c3cc(Br)cnc32)ccc1OC [WX054] | 6.9 |
| CCOc1cc([C@@H](CS(C)(=O)=O)n2c(=O)[nH]c3cc(-c4ccc(F)cc4)cnc32)ccc1OC [WX012] | 3.9 |

P: CCOc1cc([C@@H](CS(C)(=O)=O)n2c(=O)[nH]c3cc(-c4cscn4)cnc32)ccc1OC [WX036]
Q: CCOc1cc([C@@H](CS(C)(=O)=O)n2c(=O)[nH]c3cc(-c4cncnc4)cnc32)ccc1OC [WX027]
Choose between P and Q : whose measured IC50 value is numerically larger? Indicate your choice by writing its label. Q

a: CCOc1cc([C@@H](CS(C)(=O)=O)n2c(=O)[nH]c3cc(-c4cccc(F)c4F)cnc32)ccc1OC [WX013]
b: CCOc1cc([C@@H](CS(C)(=O)=O)n2c(=O)[nH]c3c(C)c(-c4ccccc4)cnc32)ccc1OC [WX064]
c: CCOc1cc([C@@H](CS(C)(=O)=O)n2c(=O)n(C(C)C)c3cc(-c4ccccc4F)cnc32)ccc1OC [WX060]
d: CCOc1cc([C@@H](CS(C)(=O)=O)n2c(=O)n(C3CC3)c3cc(-c4ccccc4F)cnc32)ccc1OC [WX046]
e: CCOc1cc([C@@H](CS(C)(=O)=O)n2c(=O)[nH]c3cc(Oc4ncccn4)cnc32)ccc1OC [WX042]
Order the 5 molecules from highest to lowest IC50. Please list each label once, in the requested order. d, e, c, b, a
(d: 7.79 nM, e: 5.42 nM, c: 3.48 nM, b: 2.23 nM, a: 0.994 nM)

I: CCOc1cc([C@@H](CS(C)(=O)=O)n2c(=O)n(C3CCC3)c3cc(-c4ccccc4F)cnc32)ccc1OC [WX062]
II: CCOc1cc([C@@H](CS(C)(=O)=O)n2c(=O)[nH]c3cc(Br)cnc32)ccc1OC [WX004]
III: CCOc1cc([C@@H](CS(C)(=O)=O)n2c(=O)[nH]c3cc(C#N)cnc32)ccc1OC [WX022]
Ordering criterion: IC50; begin with the maximum. List each label, following the requested order. III, II, I
(III: 26.5 nM, II: 7.09 nM, I: 3.5 nM)

1: CCOc1cc([C@@H](CS(C)(=O)=O)n2c(=O)[nH]c3cc(Cc4ccccc4F)cnc32)ccc1OC [WX006]
2: CCOc1cc([C@@H](CS(C)(=O)=O)n2c(=O)[nH]c3cc(C)cnc32)ccc1OC [WX020]
3: CCOc1cc([C@@H](CS(C)(=O)=O)n2c(=O)[nH]c3cc(-c4ccccc4C(F)(F)F)cnc32)ccc1OC [WX018]
4: CCOc1cc([C@@H](CS(C)(=O)=O)n2c(=O)[nH]c3cc(-c4ccccc4C(C)C)cnc32)ccc1OC [WX015]
Please rank these molecules by IC50 in descending order. In plain terms: list the labels in the order you were asked to. 2, 1, 4, 3
(2: 65.8 nM, 1: 1.8 nM, 4: 1.04 nM, 3: 0.391 nM)
